Numbers sourced from the supplement of paper PMC3334620.

Kindly supply the reported PBM E-score values for the records listed here.
System: Mot3 (UniProt P54785)
Sequence: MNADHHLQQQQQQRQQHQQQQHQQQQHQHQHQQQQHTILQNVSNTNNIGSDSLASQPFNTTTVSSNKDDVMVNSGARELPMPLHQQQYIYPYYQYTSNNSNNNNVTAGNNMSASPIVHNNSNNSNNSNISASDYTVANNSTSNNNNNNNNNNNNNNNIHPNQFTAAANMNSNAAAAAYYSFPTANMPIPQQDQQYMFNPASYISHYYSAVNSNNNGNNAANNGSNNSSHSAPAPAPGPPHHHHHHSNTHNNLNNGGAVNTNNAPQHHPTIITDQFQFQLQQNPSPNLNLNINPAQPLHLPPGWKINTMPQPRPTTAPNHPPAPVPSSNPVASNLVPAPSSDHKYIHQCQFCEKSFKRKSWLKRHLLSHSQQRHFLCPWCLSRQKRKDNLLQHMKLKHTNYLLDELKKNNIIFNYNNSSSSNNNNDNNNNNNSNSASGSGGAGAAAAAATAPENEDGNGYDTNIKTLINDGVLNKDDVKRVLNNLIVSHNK
Experiment summary: PBM E-score (8-mer binding enrichment) (E-score (-0.5 to 0.5)); higher = stronger / more preferred TF binding
Experimental setup: protein concentration: 200 nM; construct: GST-full length
The full ranking holds about 33,000 sequences; the median of “E-score (-0.5 to 0.5)” is about -0.035, and the highest 2% start at about 0.34. The list comes from a sample in which the highest values are over-represented; it also holds close analogues and randomly drawn sequences.
One number for each entry.

| Item sequence | Readout | Experimental result |
| --- | --- | --- |
| CGTGTACC | PBM E-score | 0.277 |
| CCTGTGAA | PBM E-score | 0.254 |

Please give PBM E-score, item by item, for the list that follows.
1. GGTGTATA
2. ACGCTTTG

[0.0111, -0.111]

---

System: Mot3 (UniProt P54785)
Sequence: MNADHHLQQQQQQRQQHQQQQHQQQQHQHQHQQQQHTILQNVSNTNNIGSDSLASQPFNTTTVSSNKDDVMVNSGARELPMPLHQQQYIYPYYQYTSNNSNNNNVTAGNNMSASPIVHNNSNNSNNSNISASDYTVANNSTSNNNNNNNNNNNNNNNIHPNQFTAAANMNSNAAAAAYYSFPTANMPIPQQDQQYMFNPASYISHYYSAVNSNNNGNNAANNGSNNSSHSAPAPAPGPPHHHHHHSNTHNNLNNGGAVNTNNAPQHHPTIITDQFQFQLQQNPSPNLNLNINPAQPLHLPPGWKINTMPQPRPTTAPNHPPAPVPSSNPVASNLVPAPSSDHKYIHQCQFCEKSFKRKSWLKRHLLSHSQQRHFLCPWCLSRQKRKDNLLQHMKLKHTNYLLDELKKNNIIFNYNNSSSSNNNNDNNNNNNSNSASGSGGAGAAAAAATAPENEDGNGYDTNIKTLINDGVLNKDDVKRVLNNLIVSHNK
Experiment summary: PBM E-score (8-mer binding enrichment) (E-score (-0.5 to 0.5)); higher = stronger / more preferred TF binding
Experimental setup: protein concentration: 200 nM; construct: GST-full length
Over roughly 33,000 sequences, “E-score (-0.5 to 0.5)” has its median near -0.035; the highest 2% begin near 0.34. The sample as a whole holds a higher share of the highest values than the screen did.
Cut-off 0.02 on PBM E-score, inclusive. At or above means true (1); below means false (0).

Some solved cases for reference:
| Item sequence | Class name |
| --- | --- |
| AACAGGAG | true (1) |
| GACTGATA | false (0) |
| CGCGTGTA | true (1) |
| CCCAGGCA | true (1) |
| TATAGGAA | true (1) |
| ACCAGGCA | true (1) |
| ACCAACCG | false (0) |
| ATTTGTAA | true (1) |
| CTCAAGCA | false (0) |
| AAGATTGT | true (1) |

Reported PBM E-score at or above 0.02? ACCAGGCC
false (0)

Threshold query (PBM E-score >= 0.02) on AGTTAACA
true (1)

Quick check, PBM E-score >= 0.02? GCGGGTCA
true (1)

---

System: Mot3 (UniProt P54785)
Sequence: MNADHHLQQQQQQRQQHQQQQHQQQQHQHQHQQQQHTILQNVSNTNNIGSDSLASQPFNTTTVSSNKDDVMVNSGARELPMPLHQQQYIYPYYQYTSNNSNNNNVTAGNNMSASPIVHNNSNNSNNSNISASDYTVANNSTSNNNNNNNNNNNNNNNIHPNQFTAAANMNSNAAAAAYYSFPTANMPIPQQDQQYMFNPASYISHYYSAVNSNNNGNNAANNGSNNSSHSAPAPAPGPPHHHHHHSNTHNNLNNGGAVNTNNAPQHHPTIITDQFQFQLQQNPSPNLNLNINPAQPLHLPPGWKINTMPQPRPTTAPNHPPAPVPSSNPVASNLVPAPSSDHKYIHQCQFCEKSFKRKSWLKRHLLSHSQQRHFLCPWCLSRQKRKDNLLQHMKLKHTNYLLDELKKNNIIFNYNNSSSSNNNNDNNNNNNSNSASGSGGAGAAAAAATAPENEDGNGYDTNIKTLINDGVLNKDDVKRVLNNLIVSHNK
Experiment summary: PBM E-score (8-mer binding enrichment) (E-score (-0.5 to 0.5)); higher = stronger / more preferred TF binding
Experimental setup: protein concentration: 200 nM; construct: GST-full length
Over roughly 33,000 sequences, “E-score (-0.5 to 0.5)” has its median near -0.035; the highest 2% begin near 0.34. What follows is part of a selection rich in the highest values, with near analogues and random picks from the rest.
Kindly state PBM E-score for each of the entries shown.
Give bare numbers.

| Item sequence | PBM E-score |
| --- | --- |
| CCATGTTA | 0.339 |
| AAAATACA | 0.298 |
| GGAGATAC | -0.137 |
| ACGATCCA | -0.0439 |
| CCGTATAG | -0.208 |

Report PBM E-score for each item below.
1. ACATGTTA
2. AAGACGGC
3. AGGGCATC
4. AATTGCGC
5. AGGAAACT
6. TAAACATA

1: 0.397; 2: -0.265; 3: -0.163; 4: 0.0861; 5: 0.421; 6: 0.284

---

Would you mind telling me the reported PBM E-score of each entry?
System: Mot3 (UniProt P54785)
Sequence: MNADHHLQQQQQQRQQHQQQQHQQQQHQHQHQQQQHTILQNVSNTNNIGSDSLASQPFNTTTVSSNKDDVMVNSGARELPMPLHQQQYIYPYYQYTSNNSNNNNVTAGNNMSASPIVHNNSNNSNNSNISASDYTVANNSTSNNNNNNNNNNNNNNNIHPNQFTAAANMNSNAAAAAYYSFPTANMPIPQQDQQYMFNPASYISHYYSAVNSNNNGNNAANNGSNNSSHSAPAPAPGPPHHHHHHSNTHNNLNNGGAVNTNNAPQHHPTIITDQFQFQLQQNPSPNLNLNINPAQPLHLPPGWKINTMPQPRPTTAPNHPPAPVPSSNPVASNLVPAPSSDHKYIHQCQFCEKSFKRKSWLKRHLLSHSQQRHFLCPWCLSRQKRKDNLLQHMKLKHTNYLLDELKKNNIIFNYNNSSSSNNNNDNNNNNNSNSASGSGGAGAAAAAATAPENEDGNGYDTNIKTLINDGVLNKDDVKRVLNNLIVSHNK
Experiment summary: PBM E-score (8-mer binding enrichment) (E-score (-0.5 to 0.5)); higher = stronger / more preferred TF binding
Experimental setup: protein concentration: 200 nM; construct: GST-full length
In all, about 33,000 sequences were measured (“E-score (-0.5 to 0.5)”: median about -0.035, highest 2% from about 0.34 on). The entries come from a sample that favours the highest values as a whole.
Numbers only.

Previously resolved entries follow.
| Item sequence | PBM E-score |
| --- | --- |
| AGTACACG | 0.357 |
| CGTAGGAG | -0.0892 |
| AGTAGGAT | 0.0448 |
| AGTACACA | 0.313 |
| AAATCGCC | -0.255 |
| AGTACACC | 0.052 |

Here are 4 sequences. What values of PBM E-score were reported for them?
1. AGTACATA
2. GGTACATA
3. CGAAGTAA
4. CGTACATA

1. 0.362
2. 0.238
3. 0.174
4. 0.305

Value (PBM E-score, Mot3 (UniProt P54785)) for record GTGGGTAA = -0.0112

---

System: Mot3 (UniProt P54785)
Sequence: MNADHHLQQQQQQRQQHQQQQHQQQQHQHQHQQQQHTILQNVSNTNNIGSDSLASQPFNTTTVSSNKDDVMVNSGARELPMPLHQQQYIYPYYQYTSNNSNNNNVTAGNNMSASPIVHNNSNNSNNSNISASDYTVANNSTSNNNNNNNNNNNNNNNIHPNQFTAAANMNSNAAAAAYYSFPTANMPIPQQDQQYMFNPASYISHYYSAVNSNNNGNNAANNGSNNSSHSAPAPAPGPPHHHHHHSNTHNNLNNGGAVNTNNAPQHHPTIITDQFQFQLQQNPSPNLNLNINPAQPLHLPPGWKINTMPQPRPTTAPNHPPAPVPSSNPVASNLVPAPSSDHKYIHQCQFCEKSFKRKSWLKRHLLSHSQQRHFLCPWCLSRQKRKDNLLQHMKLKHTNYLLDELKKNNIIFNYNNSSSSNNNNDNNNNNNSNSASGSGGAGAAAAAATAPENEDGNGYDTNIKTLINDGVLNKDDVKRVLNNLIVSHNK
Experiment summary: PBM E-score (8-mer binding enrichment) (E-score (-0.5 to 0.5)); higher = stronger / more preferred TF binding
Experimental setup: protein concentration: 200 nM; construct: GST-full length
In all, about 33,000 sequences were measured (“E-score (-0.5 to 0.5)”: median about -0.035, highest 2% from about 0.34 on). The entries come from a sample that favours the highest values as a whole.
Readout: PBM E-score
Give bare numbers.

Please review the following examples before continuing.
| Item sequence | Experimental result |
| --- | --- |
| GTAAGGAC | -0.194 |
| GCTGGATA | 0.0442 |

Give PBM E-score for all sequences that follow.
1. GTTAGGTA
2. TTAAGTAA
3. TACCAATA

1: 0.26; 2: 0.0348; 3: -0.253

Parameter requested: PBM E-score. Apply to each item below.
1. GAACATGC
2. GAAAGGCC
3. AAACATGC
4. ACCAGCGT
5. AACACAGC
6. CTAAGGAA
7. ATGTTAAG
8. GTGAGAGA

[0.202, -0.0302, 0.288, -0.0988, 0.268, 0.366, 0.37, 0.0715]

Consider the following items and state reported PBM E-score for each.
1. AACATGCT
2. CTTTTACA
3. CCTCTTAC
4. GCTTTACA
5. CTTAGGTA
6. GAAGGCCA
7. AAAAGGCG
8. AACATGAT

0.308
0.345
-0.0603
0.325
0.139
-0.0342
0.278
0.349

Record PBM E-score for all entries; do not skip any.
1. GGGAACTA
2. AAGACCTG
3. ATATTAAA

-0.0385
-0.079
0.184

Items follow; give PBM E-score for each.
1. AATGAGCC
2. ATGTTAAT
3. CAAAGGCG
4. AACATGAC
5. CTCCTTGA
6. CTAAGGAG

[-0.238, 0.338, 0.233, 0.359, -0.122, -0.254]

Count: 7. Required value per item: PBM E-score.
1. CCTCTAGA
2. ATTAGGCG
3. AGTGTAAT
4. AACATGAG
5. CAAAGGCC
6. TAAAGGGA
7. CGTACCAC

-0.0256
-0.0797
0.308
0.277
-0.151
0.016
-0.0328

Give measured PBM E-score for every item shown.
1. AGGAACTG
2. CCGTTGAG

1. 0.413
2. -0.213

Parameter requested: PBM E-score. Apply to each item below.
1. TGTGTAAA
2. AAACATGG
3. GGTGTAAC

[0.416, 0.222, 0.164]
